Data credit: paper PMC8991199

Assign pKd to each entry below.
target: fYF, fluorescently labelled H14 foldamer YF; test: fluorescence polarisation; direct FP: S100 protein diluted in 50 nM labeled foldamer, 20 mM HEPES pH 7.5, 150 mM NaCl, 1 mM CaCl2, 0.5 mM TCEP, 0.01% Tween20; quadratic fit (ProFit); detection threshold Kd 1 mM
pKd: −log10 of the molar value.

// each binder listed below needs its pKd
1. S100A9 (natural protein) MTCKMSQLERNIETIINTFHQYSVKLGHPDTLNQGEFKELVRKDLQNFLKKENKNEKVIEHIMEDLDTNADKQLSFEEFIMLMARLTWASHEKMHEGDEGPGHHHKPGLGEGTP
2. S100G (natural protein) MSTKKSPEELKRIFEKYAAKEGDPDQLSKDELKLLIQAEFPSLLKGPNTLDDLFQELDKNGDGEVSFEEFQVLVKKISQ

**A:**
1. < 3.00
2. < 3.00
